molecular target: MAGI2_5, Q86UL8; assay: holdup assay; set-up: key: below the threshold = too weak to quantify, mostly under pKd 3.1 to 4; conditions: plain residues with an end cap or a label only (N-terminal biotin on a linker: ado-ado)
Sequence (Q86UL8 915-1017): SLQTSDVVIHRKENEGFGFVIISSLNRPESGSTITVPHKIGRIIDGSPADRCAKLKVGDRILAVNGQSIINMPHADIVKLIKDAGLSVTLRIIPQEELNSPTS

binder: TNSKQGETTV [FZD1, Q9UP38]
pKd: below the threshold

binder: VYEVPVETKF [SLC26A3, P40879]
pKd: 3.71

binder: EFKQTSSFLV [JAM1, Q9Y624]
pKd: below the threshold

binder: GNDPDRGTSI [GRID2, O43424]
pKd: below the threshold
